Just for reference, PubChem BioAssay (EPA / NIEHS) is where these values come from.

assay: ATG_NRF2_ARE_CIS: Attagene CIS-FACTORIAL HepG2 Assay for human Nuclear Factor Erythroid 2 Related Factor 2 (NFR2) response to Antioxidant Response Elements (ARE) (AID 2282992); conditions: HepG2 Attagene ARE/NRF2 reporter, transcription factor activity; actives raise or lower the signal
Calls of active or inactive are those of the source. How the source made its calls: active means hit-call score of the fitted dose curve at least 0.9, where 1 is the maximum; inactive means score below 0.9.
Select the matching outcome among active, inactive

Sample answers from the record:
O=c1c2ccccc2nnn1CCl	inactive
O=c1[nH]nc(-c2ccc([N+](=O)[O-])o2)o1	active
CC1(C)O[C@@H]2C[C@H]3[C@@H]4C[C@H](F)C5=CC(=O)C=C[C@]5(C)[C@@]4(F)[C@@H](O)C[C@]3(C)[C@]2(C(=O)CO)O1	inactive
CC(=O)C=CC1C(C)=CCC(C)C1(C)C (configuration not stated)	active
CC=CC(F)(F)C(F)(F)C(F)(F)F	inactive
CC(=O)Nc1nnc(S(N)(=O)=O)s1	inactive

For Cc1ccc(N)c([N+](=O)[O-])c1 , which call appears in the assay record?
inactive

For O=C(O)c1ccccc1Nc1cccc(C(F)(F)F)c1 , which call appears in the assay record?
active

For Nc1ccc(Oc2ccc(N)c(N)c2)cc1 , which call appears in the assay record?
active

For O=C(C(Cl)Cl)N1CCOC12CCCCC2 , which call appears in the assay record?
active

For O=C1c2cccc(O)c2C(=O)c2c(O)cc(CO)cc21 , which call appears in the assay record?
active

For C=CCOc1c(Br)cc(Br)cc1Br , which call appears in the assay record?
inactive

* * *

read-out: Plasminogen activator inhibitor-1 (PAI1), SERPINE1 (gene 5054); assay: BSK_MyoF_PAI1: BioMAP Diversity Plus: MyoF Assay for Plasminogen activator inhibitor-1 (PAI1) Biomarker Activity (AID 2284256); settings: primary human lung fibroblasts;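 on outcome: PAI-1 protein level measured by ELISA in fibroblast cultures; PAI-1 read 24 h after compound addition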
The source made the active and inactive calls. How the source made its calls: active means hit-call score of the fitted dose curve at least 0.9, where 1 is the maximum; inactive means score below 0.9.
Select the matching outcome among True = active, False = inactive

Sample answers from the record:
C#CC1(O)CC[C@H]2[C@@H]3CCC4=CCCC[C@@H]4[C@H]3CC[C@@]21C (some centres not stated)	True
c1ccc(-c2ccccn2)nc1	False
c1ccc2c(c1)ccc1ncccc12	False

For CCCCCCCCCCCCCCCC[N+](C)(C)CC , which call appears in the assay record?
True

For CC(C)C(=O)C(C)C , which call appears in the assay record?
False

For O=C(Cl)c1cc(C(=O)Cl)cc(C(=O)Cl)c1 , which call appears in the assay record?
True

For O=c1c2ccccc2oc2ccccc12 , which call appears in the assay record?
False

For C=CC=CC=CCCCCC , which call appears in the assay record?
False

For O=C(Nc1ccccc1SSc1ccccc1NC(=O)c1ccccc1)c1ccccc1 , which call appears in the assay record?
False

For COCc1c(C(C)C)nc(C(C)C)c(/C=C/[C@@H](O)C[C@@H](O)CC(=O)O)c1-c1ccc(F)cc1 , which call appears in the assay record?
True

For CC(C)(c1cc(Br)c(OCCO)c(Br)c1)c1cc(Br)c(OCCO)c(Br)c1 , which call appears in the assay record?
True

For CCOc1nc(F)cc2nc(S(=O)(=O)Nc3c(Cl)cccc3C(=O)OC)nn12 , which call appears in the assay record?
False

* * *

tested on: SRD5A2 (gene 6716); experiment: CCTE_Deisenroth_5AR_NBTE_ratio: CCTE's 5alpha-reductase NanoBRET Target Engagement Assay - Ratio, Deisenroth Lab (AID 2284322); settings: actives raise or lower the signal
Active and inactive are the calls of the source. How the source made its calls: active means hit-call score of the fitted dose curve at least 0.9, where 1 is the maximum; inactive means score below 0.9.
Select the matching outcome among active, inactive

CCCCCCCC/C=C\CCCCCCCC(=O)O	inactive
CCCc1ccc(OC)cc1	inactive
COC(=O)c1c(C)cc(O)c(C)c1O	inactive

For CCN(CCC#N)c1ccc(N=Nc2c(Cl)cc([N+](=O)[O-])cc2Cl)cc1 , which call appears in the assay record?
active

For Oc1ccc(Cl)cc1Cc1cc(Cl)ccc1O , which call appears in the assay record?
active

For C1CN(SSN2CCOCC2)CCO1 , which call appears in the assay record?
inactive

For Cc1ccc(C(C)c2ccc(C)c(C)c2)cc1C , which call appears in the assay record?
active

For CCCCCCCC[N+](C)(CCCCCCCC)CCCCCCCC , which call appears in the assay record?
active
